Taken from BigSolDB 2.1.

Conditions: in water, 288.15 K
READOUT TYPE: solubility (mole fraction)
Give a plain numeric answer without units written out.

Bench note: what solubility (mole fraction) did OC[C@H]1O[C@H](O[C@H]2O[C@H](CO)[C@@H](O)[C@H](O)[C@H]2O)[C@H](O)[C@@H](O)[C@@H]1O show?
0.0344

----------
Settings: in water, 318.15 K
READOUT TYPE: solubility (mole fraction)

Bench note: what solubility (mole fraction) did OC[C@H]1O[C@H](O[C@H]2O[C@H](CO)[C@@H](O)[C@H](O)[C@H]2O)[C@H](O)[C@@H](O)[C@@H]1O show?
0.114

----------
Details: in ethanol, 318.15 K
READOUT TYPE: solubility (mole fraction)

Bench note: what solubility (mole fraction) did OC[C@H]1O[C@H](O[C@H]2O[C@H](CO)[C@@H](O)[C@H](O)[C@H]2O)[C@H](O)[C@@H](O)[C@@H]1O show?
0.00108

----------
Conditions: in ethanol, 308.15 K
READOUT TYPE: solubility (mole fraction)
Give a plain numeric answer without units written out.

Bench note: what solubility (mole fraction) did OC[C@H]1O[C@H](O[C@H]2O[C@H](CO)[C@@H](O)[C@H](O)[C@H]2O)[C@H](O)[C@@H](O)[C@@H]1O show?
0.000905

----------
Details: in water, 308.15 K
READOUT TYPE: solubility (mole fraction)
Give a plain numeric answer without units written out.

Bench note: what solubility (mole fraction) did OC[C@H]1O[C@H](O[C@H]2O[C@H](CO)[C@@H](O)[C@H](O)[C@H]2O)[C@H](O)[C@@H](O)[C@@H]1O show?
0.0636

----------
Settings: in ethanol, 298.15 K
READOUT TYPE: solubility (mole fraction)

Bench note: what solubility (mole fraction) did OC[C@H]1O[C@H](O[C@H]2O[C@H](CO)[C@@H](O)[C@H](O)[C@H]2O)[C@H](O)[C@@H](O)[C@@H]1O show?
0.000778

----------
Conditions: in ethanol, 303.15 K
READOUT TYPE: solubility (mole fraction)

Bench note: what solubility (mole fraction) did OC[C@H]1O[C@H](O[C@H]2O[C@H](CO)[C@@H](O)[C@H](O)[C@H]2O)[C@H](O)[C@@H](O)[C@@H]1O show?
0.000852
